The values you see were collected from paper PMC3231940.

Experiment: Metabolite profiling by HPLC radiochromatography in plasma, urine and faeces
Assay type: in vivo, human
Conditions: urine collected up to 48-h post-dose
PROPERTY_NAME: % of dose excreted, urine

Answered examples (4):
COMPOUND | PROPERTY_NAME | DATA_VALUE
CCOc1cc([C@@H](CS(C)(=O)=O)NC(=O)c2cccc(NC(C)=O)c2C(=O)O)ccc1OC [M1/M2] | % of dose excreted, urine | 0.9 % of dose
CCOc1cc([C@@H](CS(C)(=O)=O)N2C(=O)c3cccc(N)c3C2=O)ccc1OC1OC(C(=O)O)C(O)C(O)C1O (some centres unmarked) [Metabolite M14] | % of dose excreted, urine | 4.0 % of dose
CCOc1cc([C@@H](CS(C)(=O)=O)N2C(=O)c3cccc(NC(=O)CO)c3C2=O)ccc1OC [Metabolite M17] | % of dose excreted, urine | 1.2 % of dose
COc1ccc([C@@H](CS(C)(=O)=O)N2C(=O)c3cccc(NC(C)=O)c3C2=O)cc1OC1OC(C(=O)O)C(O)C(O)C1O (some centres unmarked) [Metabolite M13] | % of dose excreted, urine | 2.0 % of dose

Query compound follows.
Lookup: Please look up its % of dose excreted, urine: CCOc1cc([C@@H](CS(C)(=O)=O)N2C(=O)c3cccc(NC(=O)COC4OC(C(=O)O)C(O)C(O)C4O)c3C2=O)ccc1OC (some centres unmarked) [Metabolite M16]
Found: 0.6 % of dose
